Biological target: Serine/threonine-protein kinase TBK1 (Homo sapiens)
Sequence (Q9UHD2 whole entry): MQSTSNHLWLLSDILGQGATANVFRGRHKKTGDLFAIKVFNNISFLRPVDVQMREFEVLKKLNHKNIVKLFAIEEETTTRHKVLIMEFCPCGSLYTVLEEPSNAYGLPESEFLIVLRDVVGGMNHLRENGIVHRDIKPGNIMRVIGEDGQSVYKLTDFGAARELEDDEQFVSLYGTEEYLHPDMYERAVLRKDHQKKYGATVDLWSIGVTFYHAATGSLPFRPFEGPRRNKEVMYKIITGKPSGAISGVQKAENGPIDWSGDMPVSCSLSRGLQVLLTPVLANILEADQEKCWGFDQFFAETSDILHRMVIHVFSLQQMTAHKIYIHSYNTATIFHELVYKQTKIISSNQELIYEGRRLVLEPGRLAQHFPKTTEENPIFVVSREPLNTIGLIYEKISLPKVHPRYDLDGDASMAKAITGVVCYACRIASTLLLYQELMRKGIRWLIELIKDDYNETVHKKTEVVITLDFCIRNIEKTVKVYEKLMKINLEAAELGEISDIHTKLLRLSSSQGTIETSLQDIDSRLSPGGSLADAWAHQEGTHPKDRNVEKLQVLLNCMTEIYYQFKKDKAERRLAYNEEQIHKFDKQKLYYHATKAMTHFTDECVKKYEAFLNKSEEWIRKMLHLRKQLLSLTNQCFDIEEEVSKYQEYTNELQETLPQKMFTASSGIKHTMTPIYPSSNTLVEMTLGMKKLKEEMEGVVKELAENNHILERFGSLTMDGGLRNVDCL
pIC50: −log10 of the molar value.
Classify by measured pIC50: yes if it is equal to or exceeds 7, no if it is smaller.

Worked examples follow.
1. CN1CCC(c2ccc(Nc3ncc(C4CC4)c(NCCCNC(=O)C4CCC4)n3)cc2)CC1: yes
2. CC(C)N1CCC(n2cc(Nc3ncc(C4CC4)c(NCCCNC(=O)C4CCC4)n3)cn2)CC1: yes
3. O=C(NCCCNc1nc(Nc2cccc(F)c2)ncc1Br)C1CCCC1: yes
4. O=C(NCCCNc1nc(Nc2ccc(N3CCOCC3)cc2)ncc1C1CC1)C1CCC1: yes
5. O=C(CCc1ccccc1)NCCCNc1nc(Nc2cccc(F)c2)ncc1Br: no

Pending compound:
Given the entry O=C(NCCCNc1nc(Nc2cncnc2)ncc1C1CC1)C1CCC1 , answer whether its pIC50 meets or surpasses 7. no

====

The reader will find reported pIC50 values listed item by item below.
Biological target: Serine/threonine-protein kinase TBK1 (Homo sapiens, UniProt Q9UHD2)
Sequence (Q9UHD2 whole entry): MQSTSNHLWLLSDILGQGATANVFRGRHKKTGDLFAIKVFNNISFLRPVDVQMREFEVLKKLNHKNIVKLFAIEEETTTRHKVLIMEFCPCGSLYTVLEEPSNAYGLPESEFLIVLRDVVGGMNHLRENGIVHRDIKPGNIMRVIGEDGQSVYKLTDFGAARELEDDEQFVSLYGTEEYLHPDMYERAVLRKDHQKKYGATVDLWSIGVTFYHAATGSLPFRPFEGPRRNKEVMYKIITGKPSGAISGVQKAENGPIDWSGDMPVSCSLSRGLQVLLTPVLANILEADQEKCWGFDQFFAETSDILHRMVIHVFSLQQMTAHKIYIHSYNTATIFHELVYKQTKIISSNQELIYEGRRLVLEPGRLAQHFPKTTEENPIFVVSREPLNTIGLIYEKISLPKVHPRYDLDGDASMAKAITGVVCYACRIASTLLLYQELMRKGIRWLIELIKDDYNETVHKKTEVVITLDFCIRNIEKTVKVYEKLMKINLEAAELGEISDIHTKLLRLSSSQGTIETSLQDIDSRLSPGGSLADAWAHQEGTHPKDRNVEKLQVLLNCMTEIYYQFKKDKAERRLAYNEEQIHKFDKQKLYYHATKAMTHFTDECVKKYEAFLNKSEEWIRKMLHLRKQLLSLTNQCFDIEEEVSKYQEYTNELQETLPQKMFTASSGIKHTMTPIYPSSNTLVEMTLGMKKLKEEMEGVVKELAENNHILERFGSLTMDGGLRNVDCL
Here pIC50 is given on a logarithmic scale as minus log10 of the concentration in mol/L.

1) O=C(NCCCNc1nc(Nc2cccc(F)c2)ncc1Br)c1cnccn1: 7.66
2) CC(C)n1cc(Nc2ncc(C3CC3)c(NCCCNC(=O)C3CCC3)n2)cn1: 8.40
3) CC(=O)N1CCC(C(=O)NCCCNc2nc(Nc3cccc(F)c3)ncc2Br)CC1: 6.37

Reported pIC50 for Serine/threonine-protein kinase TBK1 (Homo sapiens, UniProt Q9UHD2), given O=C(NCCCNc1nc(Nc2ccc(N3CCOCC3)nc2)ncc1C1CC1)C1CCC1 ? 7.82

Observed pIC50 on Serine/threonine-protein kinase TBK1 (Homo sapiens, UniProt Q9UHD2) for O=C(NCCCNc1nc(Nc2ccccc2F)ncc1C1CC1)c1cccs1 , please. 6.09

Provide the documented pIC50 with Serine/threonine-protein kinase TBK1 (Homo sapiens, UniProt Q9UHD2) as the system for Cn1ncc2cc(Nc3ncc(C4CC4)c(NCCCNC(=O)C4CCC4)n3)ccc21 7.80

I'm curious: which pIC50 was measured for CN1CCC(C(=O)NCCCNc2nc(Nc3cccc(F)c3)ncc2Br)CC1 tested on Serine/threonine-protein kinase TBK1 (Homo sapiens, UniProt Q9UHD2)? 5.37

Param readout = pIC50; param system = Serine/threonine-protein kinase TBK1 (Homo sapiens, UniProt Q9UHD2); param query = CCc1cnc(Nc2cccc(F)c2)nc1NCCCNC(=O)C1CCC1 ; response: value 7.20

====

assay: Half life in CD-1 mouse at 5 mg/kg, po; type: ADME, organism-based; design: dose 5 mg/kg, route oral; settings: in vivo
ATTRIBUTE_MEASURED: half-life
Number first, unit second.

// lookup half-life for Cn1cc(Nc2ncc(C3CC3)c(NCCCNC(=O)C3CCC3)n2)cn1 1.25 h

====

experiment: Permeability from apical to basolateral side of human Caco2 cells; format: ADME, cell-based; settings: Caco-2, read-out: permeability
Label rule, in plain words: Papp A→B of 1 ×10⁻⁶ cm/s and up is MET, under 1 ×10⁻⁶ cm/s is NOT MET.

Field: example entries. Status: answers known.
1. CC(C)N1CCC(n2cc(Nc3ncc(C4CC4)c(NCCCNC(=O)C4CCC4)n3)cn2)CC1: MET
2. O=C(NCCCNc1nc(Nc2ccc(-n3cncn3)cc2)ncc1C1CC1)C1CCC1: MET
3. O=C(NCCCNc1nc(Nc2ccc(CN3CCCCC3)nc2)ncc1C1CC1)C1CCC1: NOT MET
4. Cn1cc(Nc2ncc(C3CC3)c(NCCCNC(=O)C3CCC3)n2)cn1: MET

Confirm if Papp A→B reported for the compound O=C(NCCCNc1nc(Nc2ccc(N3CCOCC3)cc2)ncc1C1CC1)C1CCC1 is 1 ×10⁻⁶ cm/s or above. MET

====

Recorded IC50, one value per entry.
molecular target: Aurora kinase B (Homo sapiens)
Sequence (Q96GD4 whole entry): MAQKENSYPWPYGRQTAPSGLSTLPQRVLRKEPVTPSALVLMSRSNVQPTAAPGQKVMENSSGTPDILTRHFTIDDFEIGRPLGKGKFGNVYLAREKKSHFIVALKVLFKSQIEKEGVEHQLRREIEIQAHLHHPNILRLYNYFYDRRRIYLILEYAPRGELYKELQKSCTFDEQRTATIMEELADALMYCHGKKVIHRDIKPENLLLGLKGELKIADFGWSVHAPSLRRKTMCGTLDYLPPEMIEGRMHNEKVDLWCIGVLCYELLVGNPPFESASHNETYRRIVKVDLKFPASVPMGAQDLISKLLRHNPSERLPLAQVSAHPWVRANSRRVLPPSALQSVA
Please state the figure in nM; there is no need to write the unit.

1. Cn1cc(Nc2ncc(C3CC3)c(NCCCNC(=O)C3CCC3)n2)cn1: 190

Now consider a different molecule.
Param readout= IC50; system= Aurora kinase B (Homo sapiens); entry= O=C(NCCCNc1nc(Nc2ccc(N3CCOCC3)cc2)ncc1C1CC1)C1CCC1 ; returns value. 700

====

assay: Volume of distribution in CD-1 mouse at 1 mg/kg, iv; assay type: ADME, organism-based; design: dose 1 mg/kg, route intravenous; details: in vivo
ATTRIBUTE_MEASURED: Vd (L/kg)
# output: bare number, implied unit L/kg

Endpoint output: Vd of Cn1cc(Nc2ncc(C3CC3)c(NCCCNC(=O)C3CCC3)n2)cn1 . Value? 1.79
